# SYSTEM: UniProt Q15858
# Sequence (Q15858 whole entry): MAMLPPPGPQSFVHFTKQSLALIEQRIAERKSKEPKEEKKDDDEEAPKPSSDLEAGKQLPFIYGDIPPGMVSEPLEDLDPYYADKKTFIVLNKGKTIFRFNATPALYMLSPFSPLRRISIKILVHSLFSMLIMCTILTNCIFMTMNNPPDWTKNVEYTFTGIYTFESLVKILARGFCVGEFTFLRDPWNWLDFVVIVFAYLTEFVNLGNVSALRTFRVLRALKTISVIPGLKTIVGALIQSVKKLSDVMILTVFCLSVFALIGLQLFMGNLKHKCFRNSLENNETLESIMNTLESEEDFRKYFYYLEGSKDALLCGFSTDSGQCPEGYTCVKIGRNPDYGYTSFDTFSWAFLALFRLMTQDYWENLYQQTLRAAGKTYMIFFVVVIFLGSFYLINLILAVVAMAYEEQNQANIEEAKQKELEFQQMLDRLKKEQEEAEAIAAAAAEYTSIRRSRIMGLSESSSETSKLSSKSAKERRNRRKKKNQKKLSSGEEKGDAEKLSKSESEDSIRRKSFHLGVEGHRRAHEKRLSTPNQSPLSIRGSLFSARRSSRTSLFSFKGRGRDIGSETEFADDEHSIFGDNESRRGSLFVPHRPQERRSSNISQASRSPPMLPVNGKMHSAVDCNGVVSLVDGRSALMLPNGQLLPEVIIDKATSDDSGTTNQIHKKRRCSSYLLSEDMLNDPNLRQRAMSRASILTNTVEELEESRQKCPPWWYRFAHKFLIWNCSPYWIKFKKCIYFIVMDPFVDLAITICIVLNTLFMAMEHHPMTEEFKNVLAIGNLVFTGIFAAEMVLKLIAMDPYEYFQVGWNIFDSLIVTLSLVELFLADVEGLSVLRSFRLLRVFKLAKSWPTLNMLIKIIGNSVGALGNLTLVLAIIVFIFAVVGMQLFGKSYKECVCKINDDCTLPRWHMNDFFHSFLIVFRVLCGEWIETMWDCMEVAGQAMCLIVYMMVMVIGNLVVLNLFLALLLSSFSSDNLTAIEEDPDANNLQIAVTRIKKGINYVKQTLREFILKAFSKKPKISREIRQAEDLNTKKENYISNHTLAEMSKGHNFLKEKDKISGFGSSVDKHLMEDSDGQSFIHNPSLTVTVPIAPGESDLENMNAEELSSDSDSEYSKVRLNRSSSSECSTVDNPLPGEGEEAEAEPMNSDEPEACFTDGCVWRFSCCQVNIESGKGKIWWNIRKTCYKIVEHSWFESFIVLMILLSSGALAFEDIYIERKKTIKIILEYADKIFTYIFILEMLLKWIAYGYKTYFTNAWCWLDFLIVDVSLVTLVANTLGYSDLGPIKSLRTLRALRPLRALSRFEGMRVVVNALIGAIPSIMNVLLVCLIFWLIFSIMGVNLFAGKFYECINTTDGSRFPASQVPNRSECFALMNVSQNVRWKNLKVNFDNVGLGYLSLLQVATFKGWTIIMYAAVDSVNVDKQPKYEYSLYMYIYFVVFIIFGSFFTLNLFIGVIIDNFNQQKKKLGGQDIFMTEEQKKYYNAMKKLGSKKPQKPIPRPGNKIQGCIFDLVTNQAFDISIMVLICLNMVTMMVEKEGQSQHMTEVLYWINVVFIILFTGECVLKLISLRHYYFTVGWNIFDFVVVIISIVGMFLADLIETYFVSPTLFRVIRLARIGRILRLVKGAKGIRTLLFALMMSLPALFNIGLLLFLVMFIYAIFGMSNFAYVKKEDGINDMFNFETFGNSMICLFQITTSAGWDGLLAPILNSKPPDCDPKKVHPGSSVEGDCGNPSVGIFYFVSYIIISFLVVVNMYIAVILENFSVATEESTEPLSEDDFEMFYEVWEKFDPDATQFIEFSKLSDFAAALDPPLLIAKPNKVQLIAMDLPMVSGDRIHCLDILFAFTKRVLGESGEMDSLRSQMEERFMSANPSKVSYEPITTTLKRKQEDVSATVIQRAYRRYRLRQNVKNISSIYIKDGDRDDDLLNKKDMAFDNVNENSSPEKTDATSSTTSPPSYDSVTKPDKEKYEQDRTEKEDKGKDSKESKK
# PROTOCOL_NOTES: Inhibition of sodium channels, Red Membrane Potential Dye FLIPR assay, veratridine depolarization
# Assay type: cell-based
# MEASUREMENT_CONDITIONS: HEK-293 cells overexpressing the channel; read-out: Nav1.7 IC50
QUANTITY_NAME: IC50 (nM)

CCCc1cc(C(F)(F)F)ccc1[C@H]1CCOc2cc(S(=O)(=O)Nc3cccc(F)n3)ccc21	41
O=S(=O)(Nc1cccc(F)n1)c1ccc2c(c1)OCC[C@@H]2c1ccc(C(F)(F)F)cc1CCCF (racemic)	0.7
O=S(=O)(Nc1ccncn1)c1ccc2c(c1)OCC[C@@H]2c1ccc(C(F)(F)F)cc1CCC(F)F (racemic)	34
O=S(=O)(Nc1cccnn1)c1ccc2c(c1)OCC[C@H]2c1ccc(C(F)(F)F)cc1-c1ccc(F)nc1	622
O=S(=O)(Nc1cccnn1)c1ccc2c(c1)OCC[C@@H]2c1ccc(C(F)(F)F)cc1CCF (racemic)	42
CCCc1cc(C(F)(F)F)ccc1[C@@H]1CCOc2cc(S(=O)(=O)Nc3ncc(F)cn3)ccc21	2740
O=C1OCCN1c1cc(C(F)(F)F)ccc1[C@H]1CCOc2cc(S(=O)(=O)Nc3ncccn3)ccc21 (racemic)	49
O=S(=O)(Nc1cccc(F)n1)c1ccc2c(c1)OCC[C@H]2c1ccc(C(F)(F)F)cc1OC1CCOCC1	1310
O=C1CCCN1c1cc(C(F)(F)F)ccc1[C@H]1CCOc2cc(S(=O)(=O)Nc3ncccn3)ccc21 (racemic)	41
Cc1cccc(NS(=O)(=O)c2ccc3c(c2)OCC[C@H]3c2ccc(C(F)(F)F)cc2-c2ccnn2C)n1	1010
